// inhibition at 10 µM lookup, one value per entry
# TARGET_UNDER_TEST: GPR73 (prokineticin 1 receptor) (Homo sapiens, UniProt Q8TCW9)
# Construct: expressed in transfected cells; host or cells: HEK 293
# Sequence (Q8TCW9 whole entry, species assumed): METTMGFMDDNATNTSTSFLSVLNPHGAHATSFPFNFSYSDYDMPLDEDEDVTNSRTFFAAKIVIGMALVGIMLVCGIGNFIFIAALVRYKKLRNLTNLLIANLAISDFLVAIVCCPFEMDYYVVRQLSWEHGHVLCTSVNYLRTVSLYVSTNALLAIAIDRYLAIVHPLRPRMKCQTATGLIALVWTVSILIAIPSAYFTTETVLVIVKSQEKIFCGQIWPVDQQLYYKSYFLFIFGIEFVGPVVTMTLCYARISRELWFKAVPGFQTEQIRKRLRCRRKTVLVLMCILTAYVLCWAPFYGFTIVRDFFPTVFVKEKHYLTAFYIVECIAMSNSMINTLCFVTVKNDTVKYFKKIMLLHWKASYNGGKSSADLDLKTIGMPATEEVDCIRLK
# PROTOCOL_DESCRIPTION: PK1 functional assay: Ca2+ mobilization on the FLIPR
# Assay type: cell-based
# ASSAY_CONTEXT: 10 µM; read-out: Ca^2+ Mobilization % Inh @10 µM
# Protocol: At a time of 24 h prior to running the assay, in cell culture media (DMEM containing high Glucose and L-glutamine, 10% FBS, 1% Pen/Streptomycin, 1% Sodium Pyruvate, 20 mM HEPES, Zeocin 200 mg/L), 100 µL of 1.3*10^6/ml HEK 293 GPR73 (prokineticin 1 receptor) expressing cells were plated in a 96 well poly-d-lysine coated plate (Costar), and incubated at 37° C. and 5% CO2. […] Baseline is described as the amount of relative fluorescence read when buffer alone is added to cells. […]
Express the result in % but write the number alone.

Worked examples, 4 compounds total:
Nc1nc2ccccc2n1CCNc1nc(=O)n(Cc2ccc(F)cc2)c(=O)n1Cc1ccc(OC(F)(F)F)cc1 [Cpd 19] : 102
Nc1ncc(CCNc2nc(=O)n(Cc3ccc(Cl)c(Cl)c3)c(=O)n2Cc2ccc(OC(F)F)cc2)[nH]1 [Cpd 79] : 96
COc1ccc(Cn2c(NCCn3c(N)nc4ccccc43)nc(=O)n(Cc3ccc(Cl)c(Cl)c3)c2=O)cc1 [Cpd 69] : 102
NC1=Nc2cccc(Cl)c2CN1CCNc1nc(=O)n(Cc2ccc(F)cc2)c(=O)n1Cc1ccc(OC(F)F)cc1 [Cpd 42] : 101

// fetch inhibition at 10 µM given entry Nc1nc2ccccc2n1CCNc1nc(=O)n(Cc2ccc(Cl)c(Cl)c2)c(=O)n1Cc1ccc(OC(F)F)cc1 [Cpd 84] 97

Read the entry Nc1nc2ccccc2n1CCNc1nc(=O)n(Cc2ccc3c(c2)CCO3)c(=O)n1Cc1ccc2c(c1)CCO2 [Cpd 76] and write its reported inhibition at 10 µM. 97

Consider the compound Nc1nc2c(F)cc(F)cc2n1CCNc1nc(=O)n(Cc2ccc(F)cc2)c(=O)n1Cc1ccc(OC(F)(F)F)cc1 [Cpd 36] . State its measured inhibition at 10 µM. 50
